experiment: chemical genetic growth profiling, strain panel (AID 1159580);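 also: tested at 20 µM; growth read once vehicle control cultures reached saturation at 30 °C; 1 = growth at the plate median or of vehicle wells; lower values mean less growth of the strain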; conditions: S. cerevisiae deletion strains, growth OD, locus YNL067W, strain RPL9B, active compounds read low
In all, about 5,500 compounds went through this assay and about 2,000 (36%) were called active. Another 18% or so got no clear call; they are omitted. Some of the results follow.
property: normalized growth
Answer with a number only.

Consider the worked cases shown below.
Consider the molecule OCCN1C[C@@H](O)[C@@H](O)C(O)C1CO (stereo not given in full) and give its recorded normalized growth.
1.02

Look up and state reported normalized growth for "COc1cc2c(cc1OC)[C@@H]1C(=O)c3ccc4oc(C(C)C)cc4c3O[C@@H]1CO2"
1.02

Fill in reported normalized growth for this entry: "CCOC(=O)CCC(=O)O[C@H]1[C@H](O[C@@H]2[C@@H](C)[C@H](O[C@H]3C[C@@](C)(OC)[C@@H](O)[C@H](C)O3)[C@@H](C)C(=O)O[C@H](CC)[C@@](C)(O)[C@H](O)[C@@H](C)C(=O)[C@H](C)C[C@@]2(C)O)O[C@H](C)C[C@@H]1N(C)C"
0.992

State, in one line, measured normalized growth of CCN(CCO)CCCC(C)Nc1ccnc2cc(Cl)ccc12 (stereo not given)
1.01

New cases:
Tell us which normalized growth value is on record for "Cc1cc(O)c(C)c(O)c1C(=O)O"
0.979

Fill in normalized growth for record COc1cc2c(cc1OC)C1C(=O)c3ccc4c(c3OC1CO2)CCC(C)(C)O4 (stereo not given)
0.993

For the molecule "CC[C@H]1OC(=O)[C@H](C)[C@@H](O[C@H]2C[C@@](C)(OC)[C@@H](O)[C@H](C)O2)[C@H](C)[C@@H](O[C@@H]2O[C@H](C)C[C@H](N(C)C)[C@H]2O)[C@](C)(O)C[C@@H](C)CN(C)[C@H](C)[C@@H](O)[C@]1(C)O" , report normalized growth.
1.01

* * *

assay: chemical genetic growth profiling, strain panel (AID 1159580);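 also: tested at 20 µM; growth read once vehicle control cultures reached saturation at 30 °C; 1 = growth at the plate median or of vehicle wells; lower values mean less growth of the strain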; conditions: S. cerevisiae deletion strains, growth OD, locus YOR144C, strain elg1, active compounds read low
About 2,000 (36%) of roughly 5,500 compounds were called active. Inconclusive results (about 18%) are left out. This is one part of the list.
property: normalized growth
When you answer, write just the number.

# count of solved cases: 3
Let me know recorded normalized growth for CC1/C(=N\O)C[C@@H]2C[C@H]1C2(C)C (stereo not given in full) , thanks.
1.01

// fetch normalized growth given entry "C[N+](C)(C)CCOC(N)=O"
0.982

Provide measured normalized growth value, entry: "O=C(O)c1cc2ccccc2[nH]1"
1.02

Others:
Using the record for CN1CCCN=C1COC(=O)C(O)(c1ccccc1)C1CCCCC1 (stereo not given) , state its measured normalized growth.
0.991

Please look at this molecule and report its normalized growth: C[C@]12CC(=O)C3C(CC[C@@H]4C[C@H](O)CC[C@]34C)C1CC[C@]2(O)C(=O)CO (stereo not given in full)
0.993

* * *

Reported normalized growth values for the following compounds.
assay: chemical genetic growth profiling, strain panel (AID 1159580);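 also: tested at 20 µM; growth read once vehicle control cultures reached saturation at 30 °C; 1 = growth at the plate median or of vehicle wells; lower values mean less growth of the strain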; conditions: S. cerevisiae deletion strains, growth OD, locus YER015W, strain faa2, active compounds read low
The campaign covered roughly 5,500 compounds. About 2,000 (36%) were called active. Roughly 18% stayed inconclusive and do not appear here. Some of the results follow.

These recorded examples may help you get a feel for the data.
Name the recorded normalized growth of the compound listed here: "CC(C)(O)[C@@H]1[C@H]2OC(=O)[C@@H]1[C@]1(O)C[C@H]3O[C@]34C(=O)O[C@H]2[C@]14C"
1.01 (inactive)

Write down normalized growth measured for item CC(N)C(=O)OC(C)(C)Cc1ccc(Cl)cc1 (stereo not drawn)
1.01 (inactive)

Look up and report measured normalized growth for this entry: CCN(CC)CCCC(C)Nc1c2ccc(Cl)cc2nc2ccc(OC)cc12 (stereo not drawn)
1.01 (inactive)

Find the measured normalized growth of "COc1ccc2cc([C@H](C)C(=O)O)ccc2c1" and report it.
0.978 (inactive)

Output normalized growth of CC(C[N+](C)(C)C)OC(N)=O (stereo not drawn)
1.02 (inactive)

Next:
Consider the compound "CC(=O)O[C@H]1[C@@H]2[C@@H](OC(=O)Cc3ccccc3)[C@@H](C)C[C@]2(OC(C)=O)C(=O)/C(C)=C/[C@H]2[C@H](CC[C@@]13CO3)C2(C)C" . State its measured normalized growth.
0.989 (inactive)

Give recorded normalized growth. "COP(=O)(OC)OC=C(Cl)Cl"
0.982 (inactive)

Give recorded normalized growth. CN1CCc2cc3c(cc2[C@H]1C1OC(=O)c2c1ccc1c2OCO1)OCO3 (stereo partly drawn)
0.982 (inactive)
